This collection of values is drawn from ChEMBL document CHEMBL1201862.

Reported GI50 values follow for various molecules
System: SK-MEL-5
Test: NCI tumour cell line growth inhibition, 48 h
Calls of active or inactive are those of the source. Rule as the data show it: active = GI50 up to about 1.1 µM and inactive = higher.
readout-label: GI50

>>> endpoint_value("CC1C2(C)OCC(C#N)(C(=N)O2)C1(C#N)C#N (stereo not given)")
"11.3 µM (inactive)"
>>> endpoint_value("c1ccc2c(c1)oc1ccc3nsnc3c12")
"> 100 µM (inactive)"
>>> endpoint_value("C1=C(c2ccccc2)C(OC2Oc3ccccc3C=C2c2ccccc2)Oc2ccccc21 (stereo not given)")
"> 100 µM (inactive)"
>>> endpoint_value("NNc1cnn(-c2ccccc2)c(=O)c1Cl")
"> 100 µM (inactive)"
>>> endpoint_value("CCCCCCCCCCCCn1c(=O)cc(NCCCC)c2cc3c(NCCCC)cc(=O)n(CCCCCCCCCCCC)c3nc21")
"> 100 µM (inactive)"
>>> endpoint_value("Cc1ccc(S(=O)(=O)OC2CSSCC2OS(=O)(=O)c2ccc(C)cc2)cc1 (stereo not given)")
"15.7 µM (inactive)"
>>> endpoint_value("Cc1cc(=O)oc2cc3oc(N(C)c4ccccc4)nc(=O)c3cc12")
"> 100 µM (inactive)"
>>> endpoint_value("CC(Cl)(/C=C/Cl)C(Cl)/C=C/C(Cl)(CCl)CBr (stereo not given)")
"7.52 µM (inactive)"
>>> endpoint_value("CC(C)(C)C1CCC2c3c([nH]c4ccccc34)C3C(=O)N(c4ccccc4[N+](=O)[O-])C(=O)C3C2C1 (stereo not given)")
"13.5 µM (inactive)"
>>> endpoint_value("CC1(C)C=C(/C=N/Nc2ccccc2)C(C#N)=C(O)C1(C#N)C#N")
"> 100 µM (inactive)"
>>> endpoint_value("COc1cc(C2c3cc4c(cc3OC(NNc3ccccc3)C2C)OCO4)cc(OC)c1OC (stereo not given)")
"1.32 µM (inactive)"
>>> endpoint_value("Cc1ccc(S(=O)(=O)N/N=c2\\c(C)c(C3=NS(=O)(=O)c4cc(S(N)(=O)=O)c(Cl)cc4N3)oc3c(Cl)cc(Cl)cc23)cc1")
"> 100 µM (inactive)"
>>> endpoint_value("Cc1ccc(NC(=O)CC2Sc3ccccc3NC2=O)cc1C (stereo not given)")
"41.4 µM (inactive)"
>>> endpoint_value("COc1ccc2c(c1)/C(=C(\\C(Cl)=C(\\Cl)N1CCCCC1)[N+](=O)[O-])N2")
"45.9 µM (inactive)"
>>> endpoint_value("CCN(CC)CCO/N=C1/C=C2CCC3C(CC[C@@]4(C)C3CC[C@]4(C)O)[C@@]2(C)CC1 (stereo not given in full)")
"12.5 µM (inactive)"
>>> endpoint_value("Fc1ccc(F)c(C2SCc3nc4ccccc4n32)c1 (stereo not given)")
"20.3 µM (inactive)"
>>> endpoint_value("Cc1cn(C2CC(O)C(Cn3nncc3Cn3nc(Br)c(=O)[nH]c3=O)O2)c(=O)[nH]c1=O (stereo not given)")
"> 100 µM (inactive)"
>>> endpoint_value("CCCCCCCCCc1c(Cl)nc(Cl)nc1Cl")
"11.7 µM (inactive)"
>>> endpoint_value("COc1cccc(NC(=O)/C(CS(=O)(=O)CCC(C(C)=O)C(C)=O)=N/NC(C)(C)C)c1")
"> 100 µM (inactive)"
>>> endpoint_value("COc1ccc(N2C(=O)C3c4[nH]c5c(C)cccc5c4C4CCC(C(C)(C)C)CC4C3C2=O)cc1 (stereo not given)")
"> 10 µM (inactive)"

---

System: SNB-75
Assay: NCI tumour cell line growth inhibition, 48 h
The source made the active and inactive calls. No stated cut-off is given here; in the data, active = GI50 up to about 1.1 µM and inactive = higher.
readout-label: GI50

>>> endpoint_value("COc1ccc([C@H]2CC(=O)C[C@H](c3ccc(OC)cc3)C23C(=O)c2ccccc2C3=O)cc1")
"2.9 µM (inactive)"
>>> endpoint_value("c1csc(-c2ccsc2-c2cccs2)c1")
"54.6 µM (inactive)"
>>> endpoint_value("CC(C)C1CC(O)O[C@@H]([C@@H](C)[C@H]2CC(=O)[C@@H]3[C@@H]4[C@@H](O)[C@H](O)[C@H]5[C@@H](O)[C@H](O)CC[C@]5(C)[C@H]4CC[C@]23C)C1 (stereo not given in full)")
"22.2 µM (inactive)"
>>> endpoint_value("COc1nc2c(c(=O)n1C)N(C(C)=O)C1C(N2)OCC(OC(C)=O)C1OC(C)=O (stereo not given)")
"> 10 µM (inactive)"
>>> endpoint_value("CSC1(C)CC2C(CC1N1CCCCC1)C2(C)C (stereo not given)")
"> 100 µM (inactive)"
>>> endpoint_value("Cn1c(N)cc(=O)nc1N")
"> 100 µM (inactive)"
>>> endpoint_value("COc1cc2c(cc1OC)C(N(C)C)C(c1ccccc1)=C2Cl (stereo not given)")
"20 µM (inactive)"
>>> endpoint_value("O=C1OC2CCCC[C@@H]2C2C[C@]34CCCCC3[C@@H](C(=O)O4)C12 (stereo not given in full)")
"> 100 µM (inactive)"
>>> endpoint_value("Oc1ccc(Cl)cc1-c1cc(-c2ccccc2)nc(NCN2CCCCC2)n1")
"> 100 µM (inactive)"
>>> endpoint_value("O=C(CC(=O)C(=O)CC(=O)OCc1ccccc1)OCc1ccccc1")
"61.5 µM (inactive)"
>>> endpoint_value("N=c1c2c(=S)n(-c3ccccc3)c(=S)n(-c3ccccc3)c2nc(SCCN2CCOCC2)n1-c1ccccc1")
"2.07 µM (inactive)"
>>> endpoint_value("O=C(Nc1ccc(Cl)cc1Cl)C1C(=O)N(c2ccc(Cl)cc2Cl)C(=O)/C1=N\\Nc1ccc([N+](=O)[O-])cc1[N+](=O)[O-] (stereo not given)")
"27.3 µM (inactive)"
>>> endpoint_value("CC(C)[Si](OCC/C=C/C1CCC(=O)C1C(O)C1CCCCC1)(C(C)C)C(C)C (stereo not given)")
"15.2 µM (inactive)"
>>> endpoint_value("COc1ccc2cc(C(=O)Nc3ccc(O)c(C(=O)O)c3)ccc2c1OC")
"> 100 µM (inactive)"
>>> endpoint_value("O=S1(=O)OCCOS(=O)(=O)C1Br")
"> 100 µM (inactive)"
>>> endpoint_value("O=c1[nH]c(=O)n(C2CC(O)C(CO)O2)cc1Oc1ccccc1 (stereo not given)")
"> 100 µM (inactive)"
>>> endpoint_value("CCCCCCCC(=O)OC[C@H](C[As](=O)(O)O)OC(=O)CCCCCCC")
"11.1 µM (inactive)"
>>> endpoint_value("CCOC(=O)C1=C(C)C2C3C(=O)OC(=O)C3C1(C)C1C(=O)OC(=O)C21 (stereo not given)")
"> 100 µM (inactive)"
>>> endpoint_value("O=C1OC(c2ccccc2)=N/C1=C/NC(Cc1ccc(O)cc1)C(=O)O (stereo not given)")
"> 100 µM (inactive)"
>>> endpoint_value("CCOC(=O)c1cccc(/N=N/c2ncc(/C=C/C(=O)OC)[nH]2)c1")
"26.4 µM (inactive)"

---

System: NCI-H522
Test: NCI tumour cell line growth inhibition, 48 h
Activity calls are given as the source filed them. Cut-off read from the data, not from the text of the source: active = GI50 up to about 1.1 µM and inactive = higher.
Possible outcomes: true (1) for active, false (0) for inactive

>>> classification("NNc1cnn(-c2ccccc2)c(=O)c1Cl")
"false (0)"
>>> classification("COc1cc2oc(-c3ccc(O)cc3O)c(CC=C(C)C)c(=O)c2c(O)c1/C=C/C(C)C")
"false (0)"
>>> classification("CCCCCCC(C)CC(CCCCCC)NCCOC(=O)c1ccc([N+](=O)[O-])cc1 (stereo unspecified)")
"false (0)"
>>> classification("NC1=CN(Cc2ccccc2)C2=N/C(=C\\c3ccccc3)C(=O)N12")
"false (0)"
>>> classification("COc1ccc(CCNC2=CC(=O)c3ncccc3C2=O)cc1OC")
"false (0)"
>>> classification("C=C(C)[C@@H]1CC[C@]2(C(=O)O)CC[C@]3(C)[C@H](CC[C@@H]4[C@@]5(C)CC(=O)C(C)(C)[C@@H]5CC[C@]43C)[C@@H]12")
"false (0)"
>>> classification("C/C(=N/c1[nH]c(=O)cc2c1C(=O)CC2)N(C)C")
"false (0)"
>>> classification("COc1cc(OC)c2c(=O)c(O)c(-c3ccc(OC)c(OC)c3)oc2c1")
"false (0)"
>>> classification("Cc1cc(O)c(C=O)c(C)c1CCC1(C)C=Cc2cc(O)ccc2O1 (stereo unspecified)")
"false (0)"
>>> classification("COc1ccc(-c2nc(-c3cnccn3)n(C3OC(CO)C(O)C3O)n2)cc1 (stereo unspecified)")
"false (0)"
>>> classification("CC(=O)CC[N+](C)(C)C")
"true (1)"
>>> classification("Nc1cn(C2OC(CC(c3ccccc3)(c3ccccc3)c3ccccc3)C(O)C2O)c(=O)[nH]c1=O (stereo unspecified)")
"false (0)"
>>> classification("Nc1ncnn2c(C3OC(CO)C(O)C3O)ccc12 (stereo unspecified)")
"true (1)"
>>> classification("O=C1NC(=O)C2C(=O)NC(=O)C1C2Cc1ccco1 (stereo unspecified)")
"false (0)"
>>> classification("COc1cccc(NC(=O)/C(CS(=O)(=O)CCC(C(C)=O)C(C)=O)=N/NC(C)(C)C)c1")
"false (0)"
>>> classification("COc1ccc(C(=O)/C=C/c2ccc(Oc3cc(C(=O)/C=C/c4ccc(O)cc4)c(O)cc3OC)cc2)c(O)c1")
"false (0)"
>>> classification("CCCS(=O)(=O)/C(=C(\\c1ccc(Br)cc1)S(=O)(=O)CCC)c1ccc(Br)cc1")
"false (0)"
>>> classification("CCOC(=O)/C(=C\\c1ccccc1)C(=O)CCN1CCOCC1")
"false (0)"
>>> classification("Cc1nnc(N)nc1/C=C\\c1ccc(N(C)C)cc1")
"false (0)"
>>> classification("Cn1c(N)cc(=O)nc1N")
"false (0)"
>>> classification("OC(c1ccccc1)C1CC2C=CC1C2 (stereo unspecified)")
"false (0)"
